Values compiled from paper PMC12820563.

# targetUnderTest: MBP-FoxP3dN (Mus musculus, UniProt Q99JB6 188-423)
# Sequence: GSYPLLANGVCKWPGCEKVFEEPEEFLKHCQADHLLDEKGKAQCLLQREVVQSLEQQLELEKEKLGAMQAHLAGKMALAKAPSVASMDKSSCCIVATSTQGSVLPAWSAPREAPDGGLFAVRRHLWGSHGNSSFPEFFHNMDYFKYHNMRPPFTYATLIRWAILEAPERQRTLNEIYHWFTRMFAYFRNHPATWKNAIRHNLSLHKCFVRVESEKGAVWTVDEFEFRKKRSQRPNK
# method: PD-seq (MBP pull-down with sequencing); 20 mM Tris-HCl pH 7.5, 100 mM NaCl, 1.5 mM MgCl2, 0.4 uM protein, 0.1 uM dsDNA library, 30 min, room temperature, amylose pull-down; high values mean tight binding
# testContext: protein: recombinant; tags: His6-MBP; chain copies: 2; dsDNA, one strand shown
Over roughly 16,000 sequences, “rpm ratio (pull-down/input)” has its median near 0.5; the highest 2% begin near 5.5. The sample holds the highest values, similar sequences and a random draw of the others, so the mix is not that of the screen.
Listed here are sequences together with their documented binding signal.
readoutLabel: binding signal

sequenceData | readoutLabel | reportedValue
GATGATTGTTCTCCCAGCTGATGAATTGTATGATTCGAGTAAACAAATTTTCCTAATCTTTCTGTTCAAGCGCCATCTAC | binding signal | 2.94 RPM ratio (pull-down/input)
GATGATTGTTCTCCCAGCTGATGAATTCTCCCGTTCGAGTAAACAAATTTTCCTAATCTTTCTGTTCAAGCGCCATCTAC | binding signal | 0.247 RPM ratio (pull-down/input)
GATGATTGTTCTCCCAGCTGATGAATTCTATGTGTCGAGTAAACAAATTTTCCTAATCTTTCTGTTCAAGCGCCATCTAC | binding signal | 1.96 RPM ratio (pull-down/input)
GATGATTGTTCTCCCAGCTGATGAATTGTGTCCTTCGAGTAAACAAATTTTCCTAATCTTTCTGTTCAAGCGCCATCTAC | binding signal | 1.89 RPM ratio (pull-down/input)
GATGATTGTTCTCCCAGCTGATGAATTGTATGTGTCGAGTAAACAAATTTTCCTAATCTTTCTGTTCAAGCGCCATCTAC | binding signal | 3.75 RPM ratio (pull-down/input)
GATGATTGTTCTCCCAGCTGATGAATTTTGTATGTCGAGTAAACAAATTTTCCTAATCTTTCTGTTCAAGCGCCATCTAC | binding signal | 6.01 RPM ratio (pull-down/input)
GATGATTGTTCTCCCAGCTGATGAATTATGTATGTCGAGTAAACAAATTTTCCTAATCTTTCTGTTCAAGCGCCATCTAC | binding signal | 4.99 RPM ratio (pull-down/input)
GATGATTGTTCTCCCAGCTGATGAATTCTGTATGTCGAGTAAACAAATTTTCCTAATCTTTCTGTTCAAGCGCCATCTAC | binding signal | 4.95 RPM ratio (pull-down/input)
GATGATTGTTCTCCCAGCTGATGAATTAGTCGGATCGAGTAAACAAATTTTCCTAATCTTTCTGTTCAAGCGCCATCTAC | binding signal | 0.297 RPM ratio (pull-down/input)
GATGATTGTTCTCCCAGCTGATGAATTAATTTGCTCGAGTAAACAAATTTTCCTAATCTTTCTGTTCAAGCGCCATCTAC | binding signal | 3.03 RPM ratio (pull-down/input)
GATGATTGTTCTCCCAGCTGATGAATTGCTTGGGTCGAGTAAACAAATTTTCCTAATCTTTCTGTTCAAGCGCCATCTAC | binding signal | 0.775 RPM ratio (pull-down/input)
GATGATTGTTCTCCCAGCTGATGAATTTAAGGTGTCGAGTAAACAAATTTTCCTAATCTTTCTGTTCAAGCGCCATCTAC | binding signal | 0.772 RPM ratio (pull-down/input)
GATGATTGTTCTCCCAGCTGATGAATTTCTATACTCGAGTAAACAAATTTTCCTAATCTTTCTGTTCAAGCGCCATCTAC | binding signal | 0.435 RPM ratio (pull-down/input)
GATGATTGTTCTCCCAGCTGATGAATTGTATGTTTCGAGTAAACAAATTTTCCTAATCTTTCTGTTCAAGCGCCATCTAC | binding signal | 3.89 RPM ratio (pull-down/input)
GATGATTGTTCTCCCAGCTGATGAATTTTGCTTGTCGAGTAAACAAATTTTCCTAATCTTTCTGTTCAAGCGCCATCTAC | binding signal | 5.89 RPM ratio (pull-down/input)
GATGATTGTTCTCCCAGCTGATGAATTAGGGGTTTCGAGTAAACAAATTTTCCTAATCTTTCTGTTCAAGCGCCATCTAC | binding signal | 0.738 RPM ratio (pull-down/input)
GATGATTGTTCTCCCAGCTGATGAATTGTAATGCTCGAGTAAACAAATTTTCCTAATCTTTCTGTTCAAGCGCCATCTAC | binding signal | 1.07 RPM ratio (pull-down/input)
GATGATTGTTCTCCCAGCTGATGAATTGTATCCTTCGAGTAAACAAATTTTCCTAATCTTTCTGTTCAAGCGCCATCTAC | binding signal | 1.61 RPM ratio (pull-down/input)
GATGATTGTTCTCCCAGCTGATGAATTGGTATGGTCGAGTAAACAAATTTTCCTAATCTTTCTGTTCAAGCGCCATCTAC | binding signal | 1.45 RPM ratio (pull-down/input)
GATGATTGTTCTCCCAGCTGATGAATTTGCTTTGTCGAGTAAACAAATTTTCCTAATCTTTCTGTTCAAGCGCCATCTAC | binding signal | 6.34 RPM ratio (pull-down/input)
GATGATTGTTCTCCCAGCTGATGAATTGTATGGGTCGAGTAAACAAATTTTCCTAATCTTTCTGTTCAAGCGCCATCTAC | binding signal | 1.19 RPM ratio (pull-down/input)
GATGATTGTTCTCCCAGCTGATGAATTGGGACTGTCGAGTAAACAAATTTTCCTAATCTTTCTGTTCAAGCGCCATCTAC | binding signal | 0.673 RPM ratio (pull-down/input)
GATGATTGTTCTCCCAGCTGATGAATTTGTCACTTCGAGTAAACAAATTTTCCTAATCTTTCTGTTCAAGCGCCATCTAC | binding signal | 5.39 RPM ratio (pull-down/input)
GATGATTGTTCTCCCAGCTGATGAATTGCTCTTGTCGAGTAAACAAATTTTCCTAATCTTTCTGTTCAAGCGCCATCTAC | binding signal | 0.594 RPM ratio (pull-down/input)
GATGATTGTTCTCCCAGCTGATGAATTAACGGATTCGAGTAAACAAATTTTCCTAATCTTTCTGTTCAAGCGCCATCTAC | binding signal | 0.29 RPM ratio (pull-down/input)
GATGATTGTTCTCCCAGCTGATGAATTGTAAACGTCGAGTAAACAAATTTTCCTAATCTTTCTGTTCAAGCGCCATCTAC | binding signal | 0.874 RPM ratio (pull-down/input)
GATGATTGTTCTCCCAGCTGATGAATTGCTTTGGTCGAGTAAACAAATTTTCCTAATCTTTCTGTTCAAGCGCCATCTAC | binding signal | 1.08 RPM ratio (pull-down/input)
GATGATTGTTCTCCCAGCTGATGAATTTGTATCTTCGAGTAAACAAATTTTCCTAATCTTTCTGTTCAAGCGCCATCTAC | binding signal | 5.56 RPM ratio (pull-down/input)
GATGATTGTTCTCCCAGCTGATGAATTAAATCTCTCGAGTAAACAAATTTTCCTAATCTTTCTGTTCAAGCGCCATCTAC | binding signal | 0.29 RPM ratio (pull-down/input)

---

# targetUnderTest: MBP-FoxP3dN (Mus musculus, UniProt Q99JB6 188-423)
# Sequence: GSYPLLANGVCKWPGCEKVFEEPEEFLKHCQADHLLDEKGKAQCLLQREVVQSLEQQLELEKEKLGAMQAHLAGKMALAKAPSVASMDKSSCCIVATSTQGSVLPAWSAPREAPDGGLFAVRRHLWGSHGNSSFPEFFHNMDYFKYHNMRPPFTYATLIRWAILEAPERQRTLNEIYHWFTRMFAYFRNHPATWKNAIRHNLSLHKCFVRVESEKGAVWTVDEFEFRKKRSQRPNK
# method: PD-seq (MBP pull-down with sequencing); 20 mM Tris-HCl pH 7.5, 100 mM NaCl, 1.5 mM MgCl2, 0.4 uM protein, 0.1 uM dsDNA library, 30 min, room temperature, amylose pull-down; high values mean tight binding
# testContext: protein: recombinant; tags: His6-MBP; chain copies: 2; dsDNA, one strand shown
Whole data set: some 16,000 sequences, median “rpm ratio (pull-down/input)” near 0.5, cut for the highest 2% near 5.5. This is one part of a sample in which the highest values are shown more often than they occur.
Listed here are sequences together with their documented binding signal.

sequenceData | binding signal
GATGATTGTTCTCCCAGCTGATGAATTCTGCATTTCGAGTAAACAAATTTTCCTAATCTTTCTGTTCAAGCGCCATCTAC | 6.51 RPM ratio (pull-down/input)
GATGATTGTTCTCCCAGCTGATGAATTGCTGCATTCGAGTAAACAAATTTTCCTAATCTTTCTGTTCAAGCGCCATCTAC | 6.8 RPM ratio (pull-down/input)
GATGATTGTTCTCCCAGCTGATGAATTCTGCATCTCGAGTAAACAAATTTTCCTAATCTTTCTGTTCAAGCGCCATCTAC | 6.75 RPM ratio (pull-down/input)
GATGATTGTTCTCCCAGCTGATGAATTACTGAATTCGAGTAAACAAATTTTCCTAATCTTTCTGTTCAAGCGCCATCTAC | 0.586 RPM ratio (pull-down/input)
GATGATTGTTCTCCCAGCTGATGAATTCTGCTGTTCGAGTAAACAAATTTTCCTAATCTTTCTGTTCAAGCGCCATCTAC | 3.41 RPM ratio (pull-down/input)
GATGATTGTTCTCCCAGCTGATGAATTACTGCATTCGAGTAAACAAATTTTCCTAATCTTTCTGTTCAAGCGCCATCTAC | 6.01 RPM ratio (pull-down/input)
GATGATTGTTCTCCCAGCTGATGAATTGTATATCTCGAGTAAACAAATTTTCCTAATCTTTCTGTTCAAGCGCCATCTAC | 3.03 RPM ratio (pull-down/input)
